For each entry below, report its inhibition at 0.004 µM value.
Target: BRD4(1) (Homo sapiens, UniProt O60885)
Construct: the phylogenetically diverse BAZ2A, BRD4(1), and BRD9 bromodomains; His tag (pNIC28-Bsa4 vector; purified on HisTrap) (N); made in house; host or cells: E. coli BL21 (DE3) Gold
Test: AlphaScreen assay inhibiting the interaction of BRD4(1) with biotinylated H4(KAc)4
Assay type: binding
Details: read-out: Percentage inhibition of bromodomain-KAc recognition, BRD4(1), H4(KAc)4, amino acid 250 μM; AlphaScreen; average of triplicate; buffer blank 0%, 25% DMSO 100% inhibition; BRD4(1) 10 nM, biotin-H4(KAc)4 4 nM
Just the number please, in %, no unit attached.

Looking for the measured inhibition at 0.004 µM of Cc1noc(C)c1-c1ccc(C[C@H](N)C(=O)O)cc1 [compound 9] , can you help?
45.8

Would you mind doing Cc1cc(COC[C@H](N)C(=O)O)on1 [compound 4] as well?
10.3

Would you mind doing Cc1noc(C)c1NC(=O)CC[C@H](N)C(=O)O [compound 10] as well?
7.5

Would you mind doing Cc1noc(C)c1NC(=O)C[C@H](N)C(=O)O [compound 12] as well?
23.5

Would you mind doing Cc1cc(NC(=O)C[C@H](N)C(=O)O)no1 [compound 13] as well?
26.3

Would you mind doing Cc1cc(CNC(=O)C[C@H](N)C(=O)O)on1 [compound 11] as well?
18.5
